TESTED_TARGET: TEL-JAK3 (Homo sapiens, UniProt P41212+P52333)
Sequence (P52333 822-1111 limits assumed, one chain of several): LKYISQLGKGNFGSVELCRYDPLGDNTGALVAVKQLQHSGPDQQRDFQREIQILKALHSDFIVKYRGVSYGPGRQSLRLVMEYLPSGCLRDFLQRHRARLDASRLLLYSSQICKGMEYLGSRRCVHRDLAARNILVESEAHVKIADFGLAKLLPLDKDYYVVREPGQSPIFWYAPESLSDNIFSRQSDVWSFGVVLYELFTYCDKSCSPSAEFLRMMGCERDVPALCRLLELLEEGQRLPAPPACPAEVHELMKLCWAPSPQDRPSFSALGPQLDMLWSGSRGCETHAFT
PROTOCOL_NOTES: AlphaScreen SureFire pSTAT5 assay, Ba/F3 TEL-JAK3
ASSAY_METRIC: IC50 (µM)
Expressed in µM, but write only the number.

# COMPOUND, TESTED_TARGET, UNIT_DESCRIPTOR, IC50
records = [
    ("Cc1cc(Nc2nc(N[C@@H](C)c3ncc(F)cn3)ncc2Cl)n[nH]1 [AZD1480, reference compound]", "TEL-JAK3 (Homo sapiens, UniProt P41212+P52333)", "µM", 2.55),
]

Name the recorded IC50 of Cc1cc(Nc2cc(CN3CCOCC3)c3nc(C)c(Cc4ccc(Cl)cc4F)n3n2)n[nH]1 [LY2784544] , assay system TEL-JAK3 (Homo sapiens, UniProt P41212+P52333).
4.74
